Data credit: ChEMBL document CHEMBL4043233

Below: a set of entries, each annotated with reported pIC50.
test: Inhibition of D-DWEYS binding to mouse anti-dsDNA monoclonal antibody R4A pretreated for 1 hr followed by D-DWEYS peptide addition measured after 1 hr by ELISA; conditions: read-out: IC50
Reminder that pIC50 means the negative base-10 logarithm of the concentration expressed in mol/L.

COMPOUND	pIC50
CC(C)(C)NC[C@@H]1CC2CCCCC2CN1C[C@@H](O)[C@H](Cc1ccccc1)NC(=O)c1ccc2ccccc2c1 (stereo partly drawn)	5.17

Attention now turns to another entry.
Can you share its pIC50? I mean this compound: CC(C)(C)NC[C@@H]1CC2CCCCC2CN1C[C@@H](O)[C@H](Cc1ccccc1)NC[C@H](CCN)NC(=O)c1ccc2ccccc2n1 (stereo partly drawn)
5.14
